B1: TCAP (parent)
chain: YQRVLPLPIFTPAKMGATKEERED

variants of: B1; assay: protein stability index of a GFP-peptide fusion (GPS, HEK-293T) (PSI 1-6); higher = more stable; conditions: c terminus: a fixed tail appended;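 further: lentivirally expressed fusions sorted by FACS into six bins by GFP to DsRed ratio, PSI derived from sequencing read proportions per bin multiplied by bin number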
resultType: protein stability index

mutantid=P6F resulttype="protein stability index" measurednumber=2.25
mutantid=Q2D resulttype="protein stability index" measurednumber=3.35
mutantid=P12D resulttype="protein stability index" measurednumber=2.92
mutantid=D24K resulttype="protein stability index" measurednumber=2.17
mutantid=A17C resulttype="protein stability index" measurednumber=2.24
mutantid=L5D resulttype="protein stability index" measurednumber=3.06
mutantid=Y1P resulttype="protein stability index" measurednumber=5.44
mutantid=P6I resulttype="protein stability index" measurednumber=2.19
mutantid=F10C resulttype="protein stability index" measurednumber=3.63
mutantid=E20V resulttype="protein stability index" measurednumber=1.65
mutantid=F10Q resulttype="protein stability index" measurednumber=4.5
mutantid=E20A resulttype="protein stability index" measurednumber=1.94
mutantid=D24L resulttype="protein stability index" measurednumber=2.04
mutantid=A17Y resulttype="protein stability index" measurednumber=1.89
mutantid=V4T resulttype="protein stability index" measurednumber=1.88
mutantid=M15W resulttype="protein stability index" measurednumber=1.72
mutantid=A13P resulttype="protein stability index" measurednumber=3.8
mutantid=G16P resulttype="protein stability index" measurednumber=1.96
mutantid=F10E resulttype="protein stability index" measurednumber=4.33
mutantid=Y1D resulttype="protein stability index" measurednumber=5.35
mutantid=L7R resulttype="protein stability index" measurednumber=3.08
mutantid=E23W resulttype="protein stability index" measurednumber=2.53
mutantid=D24S resulttype="protein stability index" measurednumber=1.45
mutantid=A13C resulttype="protein stability index" measurednumber=1.72
mutantid=E23P resulttype="protein stability index" measurednumber=1.95
mutantid=R22I resulttype="protein stability index" measurednumber=1.93
mutantid=L7Y resulttype="protein stability index" measurednumber=2.71
mutantid=T18D resulttype="protein stability index" measurednumber=2.25
mutantid=D24G resulttype="protein stability index" measurednumber=1.84
mutantid=D24Q resulttype="protein stability index" measurednumber=2.03
mutantid=K19L resulttype="protein stability index" measurednumber=1.8
mutantid=E20Y resulttype="protein stability index" measurednumber=2.67
mutantid=T11G resulttype="protein stability index" measurednumber=3.12
mutantid=Y1E resulttype="protein stability index" measurednumber=5.33
mutantid=T11Y resulttype="protein stability index" measurednumber=2.62
mutantid=A17W resulttype="protein stability index" measurednumber=2.11
mutantid=E23V resulttype="protein stability index" measurednumber=2.79
mutantid=L5M resulttype="protein stability index" measurednumber=1.9
mutantid=I9N resulttype="protein stability index" measurednumber=4.47
mutantid=T11P resulttype="protein stability index" measurednumber=3.31
mutantid=R3Q resulttype="protein stability index" measurednumber=2.78
mutantid=R3E resulttype="protein stability index" measurednumber=2.03
mutantid=E21P resulttype="protein stability index" measurednumber=2.54
mutantid=Y1F resulttype="protein stability index" measurednumber=2.09
mutantid=L7A resulttype="protein stability index" measurednumber=1.75
mutantid=M15G resulttype="protein stability index" measurednumber=2.31
